tested on: HCI03 (cells of an ER-positive luminal breast cancer xenograft); experiment: cell viability (% of vehicle); higher = less cytotoxic; conditions: 10 µM; 72 h;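 also: PDX cells carrying CMV promoter-driven luciferase, viability read as total photon flux per second by IVIS imaging following D-luciferin, vehicle control 0.1% DMSO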
property: cell viability
Reply: number alone, nothing else.

* Cc1cc(Nc2cc(N3CCN(C)CC3)nc(Sc3ccc(NC(=O)C4CC4)cc3)n2)n[nH]1 [VX-680 (MK-0457,Tozasertib)] | 84.3
* O=C(NCCN1CCOCC1)c1ccc(Cl)cc1 | 171
* COc1cc(C)c(C=CC(C)=CC=CC(C)=CC(=O)O)c(C)c1C [Acitretin] | 72.4
* CC(C)C(=O)Nc1ccc([N+](=O)[O-])c(C(F)(F)F)c1 [Flutamide] | 139
* CC1Cc2ccccc2N1NC(=O)c1ccc(Cl)c(S(N)(=O)=O)c1 (stereo not drawn) [Indapamide] | 100

### Prompt If you can, please state the reported cell viability value of CN(CCOc1ccc(NS(C)(=O)=O)cc1)CCc1ccc(NS(C)(=O)=O)cc1 [Dofetilide] .
### Response 114

### Prompt If you can, please state the reported cell viability value of COC(=O)C1C2CC3c4[nH]c5cc(OC)ccc5c4CCN3CC2CC(OC(=O)c2cc(OC)c(OC)c(OC)c2)C1OC (stereo not drawn) [Reserpine] .
### Response 112

### Prompt If you can, please state the reported cell viability value of O=C(O)c1cccnc1Nc1cccc(C(F)(F)F)c1 [Niflumic acid] .
### Response 149
